pIC50: −log10 of the molar value.
Listed here: molecules with reported pIC50 for Procathepsin L (Homo sapiens).
measured attribute: pIC50

Examples with answers:
CC(C)CC(C(=O)NCC#N)c1cccc(-c2cccnc2)c1 (stereo not given) ... 5.25
CC(C)CC(C(=O)NCC#N)c1cccc(-c2ccccn2)c1 (stereo not given) ... 5.23

[I] CC(C)CC(C(=O)NCC#N)c1cccc(-c2ccccc2N2CCNCC2)c1 (stereo not given)
[II] CC(C)CC(C(=O)NCC#N)c1cccc(-c2ccccc2N2CCOCC2)c1 (stereo not given)
Prompt line: Which has the smaller recorded pIC50, I or II ? Label of pick, please.
Response line: II
(II: 6.04, I: 6.47)

====

# system under test: Cathepsin S (Homo sapiens, UniProt P25774)
# Sequence (P25774 whole entry): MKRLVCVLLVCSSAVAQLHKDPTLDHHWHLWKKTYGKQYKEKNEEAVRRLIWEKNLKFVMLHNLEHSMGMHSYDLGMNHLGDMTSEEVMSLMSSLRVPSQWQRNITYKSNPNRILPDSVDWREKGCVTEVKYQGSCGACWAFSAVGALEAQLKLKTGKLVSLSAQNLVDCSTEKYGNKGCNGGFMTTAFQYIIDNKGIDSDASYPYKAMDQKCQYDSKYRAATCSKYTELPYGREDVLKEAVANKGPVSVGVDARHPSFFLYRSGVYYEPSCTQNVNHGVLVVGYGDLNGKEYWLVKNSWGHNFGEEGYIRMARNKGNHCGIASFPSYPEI
measured attribute: pIC50
Formally, pIC50 is defined as -log10 of the concentration c, with c in mol/L.

Prompt line: May I ask what pIC50 has been recorded for CC(C)CC(C(=O)NCC#N)c1cccc(-c2ccncc2)c1 (configuration not stated) ?
Response line: 5.76

====

# system under test: UniProt P43235
# Sequence (P43235 whole entry): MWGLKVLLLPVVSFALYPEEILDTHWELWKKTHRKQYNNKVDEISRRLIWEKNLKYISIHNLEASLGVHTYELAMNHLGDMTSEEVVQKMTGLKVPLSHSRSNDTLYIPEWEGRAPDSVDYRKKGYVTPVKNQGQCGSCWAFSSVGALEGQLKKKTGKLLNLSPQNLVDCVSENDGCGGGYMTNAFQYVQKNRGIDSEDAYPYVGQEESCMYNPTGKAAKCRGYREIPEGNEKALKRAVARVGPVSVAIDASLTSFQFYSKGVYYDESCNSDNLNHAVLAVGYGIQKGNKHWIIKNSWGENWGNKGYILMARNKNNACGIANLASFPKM
measured attribute: IC50 (nM)

CC(C)CC(C(=O)NCC#N)c1cccc(-c2ccccc2N2CCOCC2)c1 (centres undefined) ... 614
CC(C)CC(C(=O)NCC#N)c1cccc(-c2cccc(N3CCOCC3)c2)c1 (centres undefined) ... 630

[1] CC(C)CC(C(=O)NCC#N)c1cccc(-c2cccnc2)c1 (centres undefined)
[2] CC(C)CC(C(=O)NCC#N)c1cccc(-c2cccc(N3CCNCC3)c2)c1 (centres undefined)
Prompt line: Which has the smaller recorded IC50, 1 or 2 ? Label of pick, please.
Response line: 2
